target: GORASP1, Q9BQQ3; test: holdup assay; design: key: below the threshold = too weak to quantify, mostly under pKd 3.1 to 4; conditions: plain residues with an end cap or a label only (N-terminal biotin on a linker: ado-ado)
Sequence (Q9BQQ3 1-208): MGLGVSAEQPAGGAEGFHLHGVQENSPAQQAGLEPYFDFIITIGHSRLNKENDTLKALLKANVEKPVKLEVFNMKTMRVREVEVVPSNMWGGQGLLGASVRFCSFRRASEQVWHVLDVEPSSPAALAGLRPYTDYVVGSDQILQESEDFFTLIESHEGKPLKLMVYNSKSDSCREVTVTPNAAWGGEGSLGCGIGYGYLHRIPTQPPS

# binder, pKd
data = [
    ("EIPAQSPTCV [FZD10, Q9ULW2]", 3.85),
    ("TNSRHGETTV [FZD2, Q14332]", 3.88),
    ("KPGKGSETVV [FZD4, Q9ULV1]", 3.78),
    ("QSYPSKHDYV [CLDN18, P56856]", 3.74),
]
